Just for reference, patent US9029451B2 is where these values come from.

Test protocol: Hydrolytic stability in latex at 120° F., pH and Brookfield viscosity
Assay type: physicochemical
Condition label: Rhoplex AC 2508, 10 phr, 120° F., 4 weeks
Measurement label: Viscosity (cps)

In [3]: df
Out[3]:
                                   compound  measurement_label  endpoint_unit  result
0  CC(C)C(=O)C(C)(C)C(=O)OCCOCCOCCOC(=O)C(C)(C)C(=O)C(C)C [Example 4]    Viscosity (cps)            cps    1100
1  CC(C)C(=O)C(C)(C)C(=O)OCC(C)(C)CO [Example 2]    Viscosity (cps)            cps    1130
2  CC(C)C(=O)C(C)(C)C(=O)OCC(C)(C)C(O)C(C)C (stereo not shown) [Example 3]    Viscosity (cps)            cps    1130
3    CC(C)C(=O)C(C)(C)C(=O)OCCO [Example 1]    Viscosity (cps)            cps    1070

* * *

Listing of recorded pH by entry.
Test protocol: Hydrolytic stability in latex at 120° F., pH and Brookfield viscosity
Assay type: physicochemical
Condition label: Rhoplex AC 2508, 10 phr, 120° F., 2 weeks
Measurement label: pH

>>> df
                                   compound  result
0         CC(C)C(=O)C(C)(C)C(=O)OCC(C)(C)CO     8.4
1                CC(C)C(=O)C(C)(C)C(=O)OCCO     7.7
2  CC(C)C(=O)C(C)(C)C(=O)OCCOCCOCCOC(=O)C(C)(C)C(=O)C(C)C     8.2
3  CC(C)C(=O)C(C)(C)C(=O)OCC(C)(C)C(O)C(C)C (stereo not shown)     8.4

* * *

Listing of recorded Water Miscibility % water in solvent layer by entry.
Test protocol: Water miscibility, % water in solvent method (Karl Fischer)
Format: physicochemical
Condition label: stirred approx. 48 hours
Measurement label: Water Miscibility % water in solvent layer (%)

                                   compound  result
0  CC(C)C(=O)C(C)(C)C(=O)OCCOCCOCCOC(=O)C(C)(C)C(=O)C(C)C    0.01
1  CC(C)C(=O)C(C)(C)C(=O)OCC(C)(C)C(O)C(C)C (stereo not drawn)     2.1
2                CC(C)C(=O)C(C)(C)C(=O)OCCO     7.6
3         CC(C)C(=O)C(C)(C)C(=O)OCC(C)(C)CO     4.0
4         CCCCOCCOCCOC(=O)C(C)(C)C(=O)C(C)C    0.40
5  CCCCC(CC)COCCOC(=O)C(C)(C)C(=O)C(C)C (stereo not drawn)    0.03

* * *

Test protocol: Hydrolytic stability in latex at 120° F., pH and Brookfield viscosity
Format: physicochemical
Condition label: Rhoplex AC 2508, 10 phr, 120° F., 2 weeks
Listing of recorded Viscosity (cps) by entry.
Measurement label: Viscosity (cps)

>>> print(df.to_string())
                                   compound  result
0         CC(C)C(=O)C(C)(C)C(=O)OCC(C)(C)CO    1230
1                CC(C)C(=O)C(C)(C)C(=O)OCCO    1150
2  CC(C)C(=O)C(C)(C)C(=O)OCCOCCOCCOC(=O)C(C)(C)C(=O)C(C)C    1210
3  CC(C)C(=O)C(C)(C)C(=O)OCC(C)(C)C(O)C(C)C (stereo not shown)    1290
